Measured pIC50, listed per entry for reference.
assay-target: recombinant perforin (UniProt P10820)
Sequence (P10820 whole entry): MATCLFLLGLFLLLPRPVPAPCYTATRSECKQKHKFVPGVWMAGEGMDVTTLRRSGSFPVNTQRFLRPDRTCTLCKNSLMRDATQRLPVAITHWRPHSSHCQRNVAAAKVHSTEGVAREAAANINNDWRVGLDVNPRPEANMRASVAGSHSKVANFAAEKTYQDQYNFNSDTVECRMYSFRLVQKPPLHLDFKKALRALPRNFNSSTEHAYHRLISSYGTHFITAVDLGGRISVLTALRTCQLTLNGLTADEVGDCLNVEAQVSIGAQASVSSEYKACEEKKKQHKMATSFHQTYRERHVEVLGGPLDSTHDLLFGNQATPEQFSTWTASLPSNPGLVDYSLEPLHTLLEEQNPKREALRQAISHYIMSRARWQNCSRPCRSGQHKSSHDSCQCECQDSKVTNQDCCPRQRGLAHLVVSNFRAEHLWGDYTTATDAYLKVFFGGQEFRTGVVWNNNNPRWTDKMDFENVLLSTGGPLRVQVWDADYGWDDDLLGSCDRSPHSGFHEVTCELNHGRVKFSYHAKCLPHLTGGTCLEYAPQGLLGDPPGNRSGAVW
Format: cell-based
measurement-conditions: lysis of Jurkat T lymphoma cells by recombinant perforin, 0.1% BSA, 30 min pre-incubation, 4 hours at 37° C.; read-out: Jurkat IC50
Description: Inhibition of perforin-mediated lysis of Jurkat cells. The ability of the compounds to inhibit the lysis of nucleated (Jurkat T lymphoma) cells in the presence of 0.1% BSA, as measured by release of ^51Cr was measured. Jurkat target cells were labelled by incubation in medium with 100 μCi ^51Cr for one hour. […] Each data point was performed in triplicate and an IC50 was calculated from the range of concentrations described to above.
pIC50: −log10 of the molar value.
measurement-type: pIC50

[
  {
    "smiles-record": "CN1Cc2cc(-c3ccc(-c4cncc(N(C)S(=O)(=O)c5ccc(F)cc5F)c4)s3)ccc2C1=O",
    "assay-target": "recombinant perforin (UniProt P10820)",
    "experimental-value": 5.04
  },
  {
    "smiles-record": "CN1Cc2cc(-c3ccc(-c4cncc(NS(=O)(=O)c5c(F)cc(F)cc5F)c4)s3)ccc2C1=O",
    "assay-target": "recombinant perforin (UniProt P10820)",
    "experimental-value": 5.75
  },
  {
    "smiles-record": "Cc1cc(C)n(-c2ccc(S(=O)(=O)Nc3cncc(-c4ccc(-c5ccc6c(c5)CN(C)C6=O)s4)c3)cc2)n1",
    "assay-target": "recombinant perforin (UniProt P10820)",
    "experimental-value": 4.72
  },
  {
    "smiles-record": "CN1Cc2cc(-c3ccc(-c4cnc(F)c(NS(=O)(=O)c5ccccn5)c4)s3)ccc2C1=O",
    "assay-target": "recombinant perforin (UniProt P10820)",
    "experimental-value": 5.39
  }
]

----------
assay-target: recombinant perforin (UniProt P10820)
Format: cell-based
measurement-conditions: read-out: Jurkat IC50; lysis of Jurkat T lymphoma cells by recombinant perforin, 0.1% BSA, 30 min pre-incubation, 4 hours at 37° C.
Method: Inhibition of perforin-mediated lysis of Jurkat cells. The ability of the compounds to inhibit the lysis of nucleated (Jurkat T lymphoma) cells in the presence of 0.1% BSA, as measured by release of ^51Cr was measured. Jurkat target cells were labelled by incubation in medium with 100 μCi ^51Cr for one hour. […] Each data point was performed in triplicate and an IC50 was calculated from the range of concentrations described to above.
Returns: string. Value is criterion met if measured IC50 is below 5 µM, and criterion not met if it is greater than or equal to it.

[
  {
    "smiles-record": "O=C1NCc2ccc(-c3ccc(-c4cncc(NS(=O)(=O)c5ccc(F)cc5F)c4)s3)cc21",
    "label-value": "criterion not met"
  },
  {
    "smiles-record": "Cn1ccc2cc(-c3ccc(-c4cncc(NS(=O)(=O)c5ccc(F)cc5F)c4)s3)ccc21",
    "label-value": "criterion not met"
  },
  {
    "smiles-record": "CN1Cc2cc(-c3ccc(-c4cncc(NS(=O)(=O)c5ccc(Br)s5)c4)s3)ccc2C1=O",
    "label-value": "criterion met"
  },
  {
    "smiles-record": "Cc1cccc(S(=O)(=O)Nc2cncc(-c3ccc(-c4ccc5c(c4)CN(C)C5=O)s3)c2)c1",
    "label-value": "criterion not met"
  },
  {
    "smiles-record": "O=C1c2ccc(-c3ccc(-c4cncc(NS(=O)(=O)c5ccc(F)cc5F)c4)s3)cc2CN1CCO",
    "label-value": "criterion met"
  },
  {
    "smiles-record": "CN1C(=O)Cc2cc(-c3ccc(-c4cncc(NS(=O)(=O)c5ccc(F)cc5F)c4)s3)ccc21",
    "label-value": "criterion not met"
  }
]

----------
Measured melting point, listed per entry for reference.

[
  {
    "molecule": "CN1Cc2cc(-c3ccc(-c4cncc(NS(=O)(=O)c5ccc(C(C)(C)C)cc5)c4)s3)ccc2C1=O",
    "melting point": "285 to 288 °C"
  },
  {
    "molecule": "O=C1c2ccc(-c3ccc(-c4cncc(NS(=O)(=O)c5ccc(F)cc5F)c4)s3)cc2CN1CCO",
    "melting point": "211 to 216 °C"
  },
  {
    "molecule": "O=C1c2ccc(-c3ccc(-c4cncc(NS(=O)(=O)c5ccc(F)cc5F)c4)s3)cc2CN1CCCO",
    "melting point": "239 to 241 °C"
  },
  {
    "molecule": "CN1Cc2cc(-c3ccc(-c4cncc(S(=O)(=O)Nc5ccc(F)cc5F)c4)s3)ccc2C1=O",
    "melting point": "221 to 224 °C"
  },
  {
    "molecule": "CN1Cc2cc(-c3ccc(-c4cccc(NS(=O)(=O)c5ccc(F)cc5F)c4)s3)ccc2C1=O",
    "melting point": "260 to 262 °C"
  },
  {
    "molecule": "CC1c2cc(-c3ccc(-c4cncc(NS(=O)(=O)c5ccc(F)cc5F)c4)s3)ccc2C(=O)N1C (centres unmarked)",
    "melting point": "229 to 230 °C"
  },
  {
    "molecule": "COc1ccccc1S(=O)(=O)Nc1cncc(-c2ccc(-c3ccc4c(c3)CN(C)C4=O)s2)c1",
    "melting point": "273 to 276 °C"
  },
  {
    "molecule": "CN1Cc2cc(-c3ccc(-c4cncc(NS(=O)(=O)c5ccccn5)c4)s3)ccc2C1=O",
    "melting point": "272 to 275 °C"
  },
  {
    "molecule": "CN1CCc2ccc(-c3ccc(-c4cncc(NS(=O)(=O)c5ccc(F)cc5F)c4)s3)cc2C1=O",
    "melting point": "280 to 283 °C"
  },
  {
    "molecule": "CN1CCc2cc(-c3ccc(-c4cncc(NS(=O)(=O)c5ccc(F)cc5F)c4)s3)ccc2C1=O",
    "melting point": "262 to 265 °C"
  },
  {
    "molecule": "CN1Cc2ccc(-c3ccc(-c4cncc(NS(=O)(=O)c5ccc(F)cc5F)c4)s3)cc2C1=O",
    "melting point": "292 to 295 °C"
  },
  {
    "molecule": "CN1Cc2cc(-c3ccc(-c4cncc(NS(=O)(=O)c5cccc(OC(F)(F)F)c5)c4)s3)ccc2C1=O",
    "melting point": "230 to 232 °C"
  },
  {
    "molecule": "Cc1ccc(S(=O)(=O)Nc2cncc(-c3ccc(-c4ccc5c(c4)CN(C)C5=O)s3)c2)cc1Cl",
    "melting point": "277 to 279 °C"
  },
  {
    "molecule": "CN1Cc2cc(-c3ccc(-c4ccnc(NS(=O)(=O)c5ccc(F)cc5F)c4)s3)ccc2C1=O",
    "melting point": "235 to 239 °C"
  },
  {
    "molecule": "Cc1ccc(NS(=O)(=O)c2ccccn2)cc1-c1ccc(-c2ccc3c(c2)CN(C)C3=O)s1",
    "melting point": "274 to 277 °C"
  },
  {
    "molecule": "CN1Cc2cc(-c3ccc(-c4cncc(N(C)S(=O)(=O)c5ccc(F)cc5F)c4)s3)ccc2C1=O",
    "melting point": "200 to 202 °C"
  },
  {
    "molecule": "COc1cccc(S(=O)(=O)Nc2cncc(-c3ccc(-c4ccc5c(c4)CN(C)C5=O)s3)c2)c1",
    "melting point": "278 to 280 °C"
  },
  {
    "molecule": "CN1Cc2cc(-c3ccc(-c4cncc(NS(=O)(=O)c5cccc(Cl)c5)c4)s3)ccc2C1=O",
    "melting point": "291 to 295 °C"
  },
  {
    "molecule": "COc1ncc(-c2ccc(-c3ccc4c(c3)CN(C)C4=O)s2)cc1NS(=O)(=O)c1ccccc1",
    "melting point": "280 to 283 °C"
  },
  {
    "molecule": "CN1Cc2cc(-c3ccc(-c4cncc(NS(=O)(=O)c5ccc(F)c(F)c5)c4)s3)ccc2C1=O",
    "melting point": "282 to 285 °C"
  },
  {
    "molecule": "CN1Cc2cc(-c3ccc(-c4cncc(NS(=O)(=O)c5ccccc5F)c4)s3)ccc2C1=O",
    "melting point": "289 to 292 °C"
  },
  {
    "molecule": "CN1Cc2cc(-c3ccc(-c4cncc(NS(=O)(=O)c5ccc(Cl)c(Cl)c5)c4)s3)ccc2C1=O",
    "melting point": "256 to 259 °C"
  },
  {
    "molecule": "CN1Cc2cc(-c3ccc(-c4cncc(NS(=O)(=O)c5ccc(OC(F)(F)F)cc5)c4)s3)ccc2C1=O",
    "melting point": "293 to 296 °C"
  },
  {
    "molecule": "O=C1NCCc2ccc(-c3ccc(-c4cncc(NS(=O)(=O)c5ccc(F)cc5F)c4)s3)cc21",
    "melting point": "252 °C (dec.)"
  },
  {
    "molecule": "CN1Cc2cc(-c3ccc(-c4cncc(NS(=O)(=O)c5cccc(F)c5)c4)s3)ccc2C1=O",
    "melting point": "292 to 294 °C"
  },
  {
    "molecule": "COc1ncc(-c2ccc(-c3ccc4c(c3)CN(C)C4=O)s2)cc1NS(=O)(=O)c1ccc(F)cc1F",
    "melting point": "224 to 227 °C"
  },
  {
    "molecule": "COc1ccc(S(=O)(=O)Nc2cncc(-c3ccc(-c4ccc5c(c4)CN(C)C5=O)s3)c2)cc1",
    "melting point": "254 to 258 °C"
  },
  {
    "molecule": "CN1Cc2cc(-c3ccc(-c4cncc(NS(=O)(=O)c5cccc(Br)c5)c4)s3)ccc2C1=O",
    "melting point": "303 to 307 °C"
  },
  {
    "molecule": "CN1Cc2cc(-c3ccc(-c4cncc(NS(=O)(=O)c5ccc(Cl)nc5)c4)s3)ccc2C1=O",
    "melting point": "260 to 265 °C"
  },
  {
    "molecule": "CN1Cc2cc(-c3ccc(-c4cncc(NS(=O)(=O)c5cccnc5)c4)s3)ccc2C1=O",
    "melting point": "283 to 286 °C"
  },
  {
    "molecule": "CN1Cc2cc(-c3ccc(-c4cncc(NS(=O)(=O)c5cccs5)c4)s3)ccc2C1=O",
    "melting point": "300 to 304 °C"
  },
  {
    "molecule": "CN1Cc2cc(-c3ccc(-c4cncc(NS(=O)(=O)c5ccccc5Cl)c4)s3)ccc2C1=O",
    "melting point": "299 to 303 °C"
  }
]
